assay: Rough solubility at room temperature; format: physicochemical; conditions: organic solvent or mixture, thermodynamic from solid, Toluene
RECORDED_METRIC: solubility

Task: Quick one: solubility of O=C1CO[C@H](c2cn(-c3ccc(Br)cc3)nc2-c2ccc(F)cc2)N1CCc1ccc2[nH]c(=O)[nH]c2c1 [Crystal form A] ?
Result: < 2000 µg/mL

====

test: Rough solubility at room temperature; assay type: physicochemical; details: organic solvent or mixture, thermodynamic from solid, EtOH
RECORDED_METRIC: solubility

Task: Quick one: solubility of O=C1CO[C@H](c2cn(-c3ccc(Br)cc3)nc2-c2ccc(F)cc2)N1CCc1ccc2[nH]c(=O)[nH]c2c1 [Crystal form A] ?
Result: 2000 to 6700 µg/mL
